Test system: XF498
Assay: NCI tumour cell line growth inhibition, 48 h
Activity calls are given as the source filed them. Rule as the data show it: active = GI50 up to about 1.1 µM and inactive = higher.
Give one outcome, nothing more. List: active, inactive

>>> cat("Cc1nc2c(n1CCN(C)C)C(=O)c1ccccc1C2=O")
"inactive"
>>> cat("N#CNc1nc(N)c(-c2ccc(Cl)cc2)c(C(=O)Nc2nccs2)n1")
"inactive"

Exercise: Hi team, can someone confirm the assay call for COC(=O)/C(=N\NC(C)(C)C)C(C(=O)OC)C(=O)C(=O)Nc1cc(Cl)ccc1Cl (stereo unspecified) ?
Key: inactive

Exercise: Hi team, can someone confirm the assay call for CCc1cccc(C(C)CC)c1/N=C(/NC(=O)c1ccccc1C(=O)N/C(=N/c1c(CC)cccc1C(C)CC)SC)SC (stereo unspecified) ?
Key: inactive

###

System: Hs-578T
Test: NCI tumour cell line growth inhibition, 48 h
Calls of active or inactive are those of the source. Cut-off read from the data, not from the text of the source: active = GI50 up to about 1.1 µM and inactive = higher.
Give one outcome, nothing more. List: active, inactive

>>> cat("CCN(CC)Cc1cc(Nc2c3ccccc3nc3c2[nH]c2ccccc23)cc(CN(CC)CC)c1O")
"inactive"
>>> cat("COc1ccc(C[C@@H]2CN(C(=O)c3ccccc3)[C@H](Cc3ccc(O)cc3)CN2C(=O)c2ccccc2)cc1Br")
"inactive"

Exercise: Hi team, can someone confirm the assay call for COc1cc(C(c2cccc3ccccc23)N2C(=O)CCC2C(=O)O)cc(OC)c1OC (stereo not drawn) ?
Key: inactive

Exercise: Hi team, can someone confirm the assay call for O=C(/C=C/c1ccco1)CC(=O)/C=C/c1ccco1 ?
Key: inactive

Exercise: Hi team, can someone confirm the assay call for CNC=O ?
Key: inactive

Exercise: Hi team, can someone confirm the assay call for Cc1ccc(/C=C2\Sc3scc(-c4ccccc4)[n+]3C2=O)cc1 ?
Key: inactive

Exercise: Hi team, can someone confirm the assay call for CC(O)c1cc2c(s1)C(=O)c1sccc1C2=O (stereo not drawn) ?
Key: active

Exercise: Hi team, can someone confirm the assay call for CC(=O)Oc1cc2c(c3ncccc13)OC(C)(C)C2 ?
Key: inactive

###

Listed here: items and their measured GI50.
Tested on: COLO 205
Assay: NCI tumour cell line growth inhibition, 48 h
Calls of active or inactive are those of the source. Rule as the data show it: active = GI50 up to about 1.1 µM and inactive = higher.

Below, each entry is followed by its recorded GI50 result.
>>> result_value("COc1cc([C@@H]2c3cc4c(cc3[C@@H](NC(=O)NO)[C@H]3COC(=O)[C@H]23)OCO4)cc(OC)c1O")
"5.3 µM (inactive)"
>>> result_value("OC[C@H]1O[C@@H](n2cnc3cncnc32)[C@H](O)[C@@H]1O")
"0.417 µM (active)"
>>> result_value("CC(C)=CCC/C(=C/CC/C(=C\\CCc1ccoc1)C(=O)O)C(=O)O")
"> 100 µM (inactive)"

Kindly note the recorded GI50 for C=CCN(Cc1ccncc1)C(=O)C(O)(c1ccccc1)c1ccccc1 , which is 45.8 µM (inactive)

Kindly note the recorded GI50 for CC(=O)[O-].[O-]c1c(Cl)cc(Cl)cc1/C=N/Nc1ccccn1.[Zn+2] , which is 15.2 µM (inactive)

Kindly note the recorded GI50 for Cc1ccc(C)c(N2C(=O)C(=O)C(c3nc4ccccc4s3)/C(=N\c3cccc4c(=O)[nH][nH]c(=O)c34)C2=O)c1 (centres undefined) , which is 38.2 µM (inactive)

Kindly note the recorded GI50 for OCCN(CCO)CCn1cnc2c(NCc3ccccc3)ncnc21 , which is > 100 µM (inactive)

Kindly note the recorded GI50 for CC(=O)/C=C1\Nc2ccc([N+](=O)[O-])cc2N\C1=C/C(C)=O , which is 58.2 µM (inactive)

Kindly note the recorded GI50 for COc1ccc(C[C@@H]2CN(C(=O)c3ccccc3)[C@H](Cc3ccc(O)cc3)CN2C(=O)c2ccccc2)cc1Br , which is > 100 µM (inactive)

Kindly note the recorded GI50 for CN(C)CCCc1c2ccccc2nc2ccc(Cl)cc12 , which is 14.9 µM (inactive)

Kindly note the recorded GI50 for Cc1cc(N(CCC#N)CCC#N)ccc1/N=N/c1ccc(S(N)(=O)=O)cc1 , which is > 100 µM (inactive)

Kindly note the recorded GI50 for O=C1C=CC(=C(c2ccc(O)cc2)c2ccc(O)cc2)C=C1 , which is 17.7 µM (inactive)

Kindly note the recorded GI50 for CCOc1ccccc1C=C1c2ccccc2C(=O)c2ccccc21 , which is 3.78 µM (inactive)

Kindly note the recorded GI50 for CCOC(=O)Cc1ccc2c(c1O)C(=O)c1c(ccc(CC(=O)OCC)c1O)C2=O , which is > 100 µM (inactive)

Kindly note the recorded GI50 for Clc1ccc(C[P+](c2ccccc2)(c2ccccc2)c2ccccc2)c(Cl)c1 , which is 1.16 µM (inactive)

Kindly note the recorded GI50 for CC(C)(C)[Si](C)(C)OCC1OC(n2ccc(=O)[nH]c2=O)C(O[Si](C)(C)C(C)(C)C)[C@@]12O[C@H]2C(N)=O (some centres undefined) , which is 7.64 µM (inactive)

Kindly note the recorded GI50 for COc1ccc(C[C@H](N)C(=O)N2C[C@H](CO)C[C@H](n3ccc(=O)[nH]c3=O)C2)cc1 , which is > 100 µM (inactive)

Kindly note the recorded GI50 for O=C(O)Cc1ccc(Nc2nc3cc(C(F)(F)F)ccc3nc2C(=O)O)cc1 , which is > 100 µM (inactive)

Kindly note the recorded GI50 for CC(O)c1cc2c(s1)C(=O)c1sccc1C2=O (centres undefined) , which is 0.574 µM (active)

###

System: NCI-H23
Experiment: NCI tumour cell line growth inhibition, 48 h
Active and inactive are the calls of the source. Cut-off read from the data, not from the text of the source: active = GI50 up to about 1.1 µM and inactive = higher.
MEASURE: GI50

Below, each entry is followed by its recorded GI50 result.
>>> result_value("CC(=O)OCC1=C(C(=O)O)N2C(=O)C(NC(=O)CSc3ccncc3)C2SC1 (centres undefined)")
"> 100 µM (inactive)"
>>> result_value("CO[C@H]1[C@H](O)[C@H](O[C@H]2CC[C@@]3(C)[C@H](CC[C@@H]4[C@@H]3CC[C@]3(C)[C@@H](C5=CC(=O)OC5)CC[C@]43O)C2)O[C@@H](C)[C@@H]1O [NERIIFOLIN]")
"0.000394 µM (active)"
>>> result_value("CC(C)(C)NC(=O)C12C3C4C1C1C2C3C41C(=O)NC(C)(C)C (centres undefined)")
"> 100 µM (inactive)"

Turning now to a further compound:
Kindly note the recorded GI50 for COc1cc2c[n+](C)c3c4ccccc4ccc3c2cc1OC , which is 2.6 µM (inactive)

###

Test system: NCI-H522
Assay: NCI tumour cell line growth inhibition, 48 h
The source made the active and inactive calls. No stated cut-off is given here; in the data, active = GI50 up to about 1.1 µM and inactive = higher.
Give one outcome, nothing more. List: active, inactive

>>> cat("CC(C)(C)[Si](C)(C)OCC1OC(n2ccc(=O)[nH]c2=O)C(O[Si](C)(C)C(C)(C)C)[C@@]12O[C@H]2C(N)=O (some centres not stated)")
"inactive"
>>> cat("CC(=O)N(C)C(C(=O)N1CC(C)CC1C(=O)N(C)C1C(=O)NC(CC(C)C)C(=O)N2CC(C)CC2C(=O)NC(CC(C)C)C(=O)N(C)C(C(C)C)C(=O)N2CCCC2C(=O)N(C)C(CC(C)C)C(=O)NCC(=O)OC1C)C(C)C (configuration not stated)")
"inactive"
>>> cat("CN(CCNC(=O)c1cn(C)c2c1ccc1cc(Cl)c(Cl)cc12)CCNC(=O)c1cn(C)c2c1ccc1cc(Cl)c(Cl)cc12")
"inactive"
>>> cat("S=C1Cc2c(-c3ccc(Cl)cc3)cc(-c3ccccc3)nc2-c2ccccc2N1")
"inactive"
>>> cat("C/C1=C\\[C@H](C)C[C@H](C)OC(=O)[C@H](C)NC(=O)[C@@H](Cc2ccc(O)c(Br)c2)N(C)C(=O)[C@H](C)NC(=O)[C@@H](C)C1")
"active"
>>> cat("COc1cc2c3c(c1OC)C(=O)C(=O)C1=C3N(CCC1)CC2")
"inactive"

Attention now shifts to the item below.
Exercise: Hi team, can someone confirm the assay call for CCOC(=O)N(Cc1cccs1)c1cc(OC)c(OC)c(OC)c1 ?
Key: inactive

###

System: UACC-257
Assay: NCI tumour cell line growth inhibition, 48 h
Activity calls are given as the source filed them. Rule as the data show it: active = GI50 up to about 1.1 µM and inactive = higher.
Listed here: items and their measured GI50.

Below, each entry is followed by its recorded GI50 result.
>>> result_value("Cc1nc2c(n1CCN(C)C)C(=O)c1ccccc1C2=O")
"14 µM (inactive)"
>>> result_value("Cn1c(Sc2ccc(-c3cccnc3)n2C)ccc1-c1cccnc1")
"12.4 µM (inactive)"
>>> result_value("CCCCNC(=O)CCN(C(=O)O)S(=O)(=O)c1ccc(NC(=O)c2ccccc2)cc1")
"> 100 µM (inactive)"
>>> result_value("O=C(O)C1CCCCN1c1ccccc1[N+](=O)[O-] (stereo not given)")
"> 100 µM (inactive)"
>>> result_value("Cn1cc/c(=N\\N=c2/ccn(C)c3ccccc23)c2ccccc21")
"13.9 µM (inactive)"
>>> result_value("O=C1/C(=C/c2ccc(O)cc2)CCC1CNc1ccccc1 (stereo not given)")
"16.7 µM (inactive)"
>>> result_value("C=C(CN(C)C)C(=O)c1ccc(OC)cc1")
"5.31 µM (inactive)"
>>> result_value("COc1cc2c3c(c1OC)/C(=N/OS(=O)(=O)c1ccc(C)cc1)CC3N(S(=O)(=O)c1ccc(C)cc1)CC2 (stereo not given)")
"> 100 µM (inactive)"
>>> result_value("COc1cc([C@@H]2c3cc4c(cc3[C@@H](NC(=O)NO)[C@H]3COC(=O)[C@H]23)OCO4)cc(OC)c1O")
"> 100 µM (inactive)"

Tested on UACC-257, the item O=[N+]([O-])c1cccc2nc3ccccc3c(NCCCn3ccnc3[N+](=O)[O-])c12 showed GI50 equal to 0.0039 µM (active)
